Tested System: T1, human TPBG-hFc protein (human, UniProt Q13641 32-355)
T1 construct: range 32-355; Expressed in HEK293 cells, purified on protein A; also called immunogen A; hFc tagged TPBG protein; not shown: human IgG Fc fragment of the pCpC vector
T1 sequence (looked up): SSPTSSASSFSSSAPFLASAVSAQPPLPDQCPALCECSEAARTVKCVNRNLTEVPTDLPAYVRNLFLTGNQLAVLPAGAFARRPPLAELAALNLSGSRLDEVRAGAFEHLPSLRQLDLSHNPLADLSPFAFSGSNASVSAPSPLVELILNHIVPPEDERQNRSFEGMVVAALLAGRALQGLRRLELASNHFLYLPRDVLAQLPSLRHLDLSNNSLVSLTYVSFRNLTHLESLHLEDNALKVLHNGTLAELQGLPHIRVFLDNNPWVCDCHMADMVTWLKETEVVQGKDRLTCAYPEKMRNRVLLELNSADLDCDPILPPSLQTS
Method Summary: ELISA, coated human TPBG-hFc
Measured Quantity: EC50 (nM)
Give your result in nM as a bare value.

Please review the following examples before continuing.
{"Binder": "Humanized antibody 28D4-9 (antibody, V domains shown, also called h28D4-9) VH: EVQLVESGGGLVKPGGSLRLSCAASGFTFSNYVMSWIRQAPGKGLEWVSEISTGGSHTYYSDTVTGRFTISRDNAKNSLYLQMNSLRAEDTAVYYCARFYYGSSYSMDYWGQGTTVTVSS VL: DIQMTQSPSSLSASVGDRVTITCRASQDIRNYLNWYQQKPGKTVKLLIYHTSRLHSGVPSRFSGSGSGTDYTFTISSLQPEDIATYFCQQGDTLPLTFGQGTRLEIK", "EC50 / nM": 0.218}
{"Binder": "Humanized antibody 12B12-12 (antibody, V domains shown, also called h12B12-12) VH: EVQLVESGGGLVQPGGSLRLSCAASGFTFSNFGMHWVRQAPGKGLEWVSYISSGSTSFYYADTVKGRFTISRDNAKNSLYLQMNSLRDEDTAVYYCARTNSLLRGFFDAWGQGTTVTVSS VL: DIVLTQTPLSLSVTPGQPASISCRASQSVSSSSYTYLHWYLQKPGQPPQLLIKSASNLESGVPDRFSGSGSGTDFTLKISRVEAEDVGVYYCQHSWEIPLTFGQGTKLEIK", "EC50 / nM": 0.206}
{"Binder": "Humanized antibody 12B12-5 (antibody, V domains shown, also called h12B12-5) VH: EVQLVESGGGLVQPGGSLRLSCAASGFTFSNFGMHWVRQAPGKGLEWVSYISSGSTSFYYADTVKGRFTISRDNAKNSLYLQMNSLRDEDTAVYYCSRTNSLLRGFFDAWGQGTTVTVSS VL: DIVLTQSPDSLAVSLGERATINCRASQSVSSSSYTYLHWYQQKPGQPPKLLIKSASNLESGVPDRFSGSGSGTDFTLTISSLQAEDVAVYYCQHSWEIPLTFGQGTKLEIK", "EC50 / nM": 0.253}

(Q) I'd like to know its EC50. The binder in question is Humanized antibody 12B12-3 (antibody, V domains shown, also called h12B12-3) VH: EVQLVESGGGVVQPGRSLRLSCAASGFTFSNFGMHWVRQAPGKGLEWVAYISSGSTSFYYADTVKGRFTISRDNSKNTLYLQMNSLRAEDTAVYYCSRTNSLLRGFFDAWGQGTTVTVSS VL: DIVMTQSPDSLAVSLGERATINCRASQSVSSSSYTYLHWYQQKPGQPPKLLIYSASNLESGVPDRFSGSGSGTDFTLTISSLQAEDVAVYYCQHSWEIPLTFGQGTKLEIK
(A) 0.333

(Q) What do we get for Humanized antibody 12B12-9 (antibody, V domains shown, also called h12B12-9) VH: EVQLVESGGGLVQPGGSLRLSCAASGFTFSNFGMHWVRQAPGKGLEWVSYISSGSTSFYYADTVKGRFTISRDNAKNSLYLQMNSLRDEDTAVYYCSRTNSLLRGFFDAWGQGTTVTVSS VL: DIVMTQTPLSLSVTPGQPASISCRASQSVSSSSYTYLHWYLQKPGQPPQLLIYSASNLESGVPDRFSGSGSGTDFTLKISRVEAEDVGVYYCQHSWEIPLTFGQGTKLEIK ?
(A) 0.223
